# Tested on: Escherichia coli TOP10;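 further: peptides expressed intracellularly from a pBAD plasmid library in pooled LB shake-flask culture, induced with 0.3% L-arabinose, DNA abundance read by NGS, three biological replicates, DESeq2 with apeglm shrinkage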
# Test Description: shrunken log2 fold change of peptide-encoding DNA abundance (4.5 h post-induction vs induction); higher = less antimicrobial activity (less host growth inhibition)
# Assay Context: time post-induction: 4.5 h; library: site-saturation at positions 5, 18, 19, 20
Measured Parameter: shrunken log2 fold change
Lab note: jot the number down without any unit.

[[record]]
sequence_data = "RRIRDRPPRLPRPRPRPDHKPRP"
target_or_system = "Escherichia coli TOP10"
numeric_value = -0.119

[[record]]
sequence_data = "RRIRMRPPRLPRPRPRPEAQPRP"
target_or_system = "Escherichia coli TOP10"
numeric_value = 3.76

[[record]]
sequence_data = "RRIRCRPPRLPRPRPRPLHGPRP"
target_or_system = "Escherichia coli TOP10"
numeric_value = -0.089


Please fill in: shrunken log2 fold change reported for `RRIRSRPPRLPRPRPRPKRHPRP` = 0.169

Input `RRIRNRPPRLPRPRPRPGGIPRP` . Output shrunken log2 fold change: -0.109

Entry `RRIRSRPPRLPRPRPRPEDMPRP` ; shrunken log2 fold change = -0.088
